Conditions: in ethanol, 278.15 K
measurement_label: solubility (mole fraction)
The answer should be written as a number, with no unit following it.

Bench note: what solubility (mole fraction) did `CO/N=C1\C[C@]2(C[C@@H]3C[C@@H](C/C=C(\C)C[C@@H](C)/C=C/C=C4\CO[C@@H]5[C@H](O)C(C)=C[C@@H](C(=O)O3)[C@]45O)O2)O[C@H](/C(C)=C/C(C)C)[C@H]1C` show? 0.0532

====

Conditions: in ethanol, 303.15 K
measurement_label: solubility (mole fraction)
The answer should be written as a number, with no unit following it.

Bench note: what solubility (mole fraction) did `CO/N=C1\C[C@]2(C[C@@H]3C[C@@H](C/C=C(\C)C[C@@H](C)/C=C/C=C4\CO[C@@H]5[C@H](O)C(C)=C[C@@H](C(=O)O3)[C@]45O)O2)O[C@H](/C(C)=C/C(C)C)[C@H]1C` show? 0.133

====

Details: in isopropanol, 303.15 K
measurement_label: solubility (mole fraction)
The answer should be written as a number, with no unit following it.

Bench note: what solubility (mole fraction) did `CO/N=C1\C[C@]2(C[C@@H]3C[C@@H](C/C=C(\C)C[C@@H](C)/C=C/C=C4\CO[C@@H]5[C@H](O)C(C)=C[C@@H](C(=O)O3)[C@]45O)O2)O[C@H](/C(C)=C/C(C)C)[C@H]1C` show? 0.0253

====

Details: in ethanol, 323.15 K
measurement_label: solubility (mole fraction)
The answer should be written as a number, with no unit following it.

Bench note: what solubility (mole fraction) did `CO/N=C1\C[C@]2(C[C@@H]3C[C@@H](C/C=C(\C)C[C@@H](C)/C=C/C=C4\CO[C@@H]5[C@H](O)C(C)=C[C@@H](C(=O)O3)[C@]45O)O2)O[C@H](/C(C)=C/C(C)C)[C@H]1C` show? 0.223

====

Conditions: in water, 278.15 K
measurement_label: solubility (mole fraction)
The answer should be written as a number, with no unit following it.

Bench note: what solubility (mole fraction) did `CO/N=C1\C[C@]2(C[C@@H]3C[C@@H](C/C=C(\C)C[C@@H](C)/C=C/C=C4\CO[C@@H]5[C@H](O)C(C)=C[C@@H](C(=O)O3)[C@]45O)O2)O[C@H](/C(C)=C/C(C)C)[C@H]1C` show? 3.75e-06

====

Details: in ethanol, 288.15 K
measurement_label: solubility (mole fraction)
The answer should be written as a number, with no unit following it.

Bench note: what solubility (mole fraction) did `CO/N=C1\C[C@]2(C[C@@H]3C[C@@H](C/C=C(\C)C[C@@H](C)/C=C/C=C4\CO[C@@H]5[C@H](O)C(C)=C[C@@H](C(=O)O3)[C@]45O)O2)O[C@H](/C(C)=C/C(C)C)[C@H]1C` show? 0.0814

====

Settings: in methanol, 303.15 K
measurement_label: solubility (mole fraction)
The answer should be written as a number, with no unit following it.

Bench note: what solubility (mole fraction) did `CO/N=C1\C[C@]2(C[C@@H]3C[C@@H](C/C=C(\C)C[C@@H](C)/C=C/C=C4\CO[C@@H]5[C@H](O)C(C)=C[C@@H](C(=O)O3)[C@]45O)O2)O[C@H](/C(C)=C/C(C)C)[C@H]1C` show? 0.0634
